Values compiled from patent US20230095836A1.

Tested on: Zymoseptoria tritici
Experiment: Test A: test solution sprayed on wheat seedlings, inoculated next day with Zymoseptoria tritici (wheat leaf blotch); disease rating (100 = 100% disease control, 0 = no control; dash = not tested)
Format: in vivo
Conditions: 250 ppm
Measured attribute: Test A disease control rating (%)
Give the value in % but do not write % after it.

## Input Which Test A disease control rating is reported for this molecule? CCn1nc(-c2ccc(F)cc2Cl)c(-c2ccc(F)cc2Cl)c(Cl)c1=O
## Output 100

## Input Fill in: Test A disease control rating of CCOC(=O)c1c(-c2ccc(F)cc2Cl)c(-c2ccc(F)cc2Cl)nn(C)c1=O [Compound 143] is ___
## Output 6

## Input # query: Test A disease control rating of entry COc1cccc(-c2nn(C)c(=O)cc2-c2c(F)cccc2F)c1Cl
## Output 100

## Input Quick one: Test A disease control rating of COc1cc(OC)cc(-c2nn(C)c(=O)cc2-c2ccc(F)cc2Cl)c1 ?
## Output 99

## Input Given Cn1nc(-c2ccc(F)cc2Cl)c(-c2ccc(F)cc2Cl)c(C(=O)O)c1=O , state its recorded Test A disease control rating.
## Output 0

## Input Name the reported Test A disease control rating value associated with the molecule Cn1nc(-c2cccc(F)c2Cl)c(-c2c(F)cccc2F)cc1=O
## Output 100
